# protocol-notes: small-molecule binders of probe aLefty1, primary screen, biochemical, small-molecule microarray, 635/667 nm fluorescence (AID 1153);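 further: score merges spot fluorescence with signal-to-noise ratio from the scanned slide images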
# assay-conditions: higher = more signal
Kindly supply the reported composite z-score values for the records listed here.
Format: numeric value only, no unit, no commentary.

**Q:** Retrieve composite z-score measured for C=C(CCCC)C(=O)CC[C@H](OC(=O)c1ccccc1-c1ccccc1C(=O)O)c1cccc(OCCO)c1 and print it.
**A:** -0.147

**Q:** Retrieve composite z-score measured for C=C[C@H](OC)[C@@H](O)c1ccc(OC)c(O)c1 and print it.
**A:** -0.169

**Q:** Retrieve composite z-score measured for C=CCOC(=O)[C@H]1[C@@H]2C(=O)O[C@@H](c3ccccc3)[C@@H](c3ccccc3)N2[C@@H](c2ccc(OCCOC(=O)[C@H]3C[C@H]4C(=O)NCC(=O)N4[C@H]3c3ccc(O)cc3)cc2)[C@]12C(=O)Nc1ccccc12 and print it.
**A:** 1.09

**Q:** Retrieve composite z-score measured for O=C1OCC=C[C@H]2OC34C=CCN(Cn5nnc6ccccc65)C(=O)[C@H]3N(CCO)C(=O)[C@@H]4[C@@H]12 (some centres not stated) and print it.
**A:** -0.101

**Q:** Retrieve composite z-score measured for CCCCC(=C=CC[C@@H](O)c1ccccc1OCCO)C[C@@H](O)c1ccccn1 and print it.
**A:** -0.0192

**Q:** Retrieve composite z-score measured for Cc1ccc(S[C@]2(C(=O)NC(C)C)CC(=O)N(Cc3ccccc3)[C@@H]2c2ccc(CO)cc2I)cc1 and print it.
**A:** 0.164

**Q:** Retrieve composite z-score measured for COC(=O)C[C@H]1O[C@]2(C(=O)N(C)c3ccccc32)[C@@H](C)[C@@H]1[Si](C)(C)c1ccccc1 and print it.
**A:** 0.151

* * *

# measurement-target: Fibroblast growth factor 10 (Homo sapiens)
# protocol-notes: FGF10 binders on small-molecule microarrays, primary screen, biochemical, small-molecule microarray, 635 nm fluorescence (AID 1102)
# assay-conditions: FGF10 binding, fluorescence 635 nm, higher = more signal
outcome-measure: composite z-score
Format: numeric value only, no unit, no commentary.

**Q:** Retrieve composite z-score measured for C=C1C(=O)C=C2CN(C(=O)c3ccccc3)[C@@](Cc3ccc(F)cc3)(C(=O)OC)[C@@H]12 and print it.
**A:** 0.941

**Q:** Retrieve composite z-score measured for CC[C@@H](O[Si](C#C[Si](C(C)C)(C(C)C)C(C)C)(C(C)C)C(C)C)c1cn([C@H](C)c2ccccc2)nn1 and print it.
**A:** 0.403

**Q:** Retrieve composite z-score measured for CCOC(=O)C=C1C[C@@H](c2cccc([N+](=O)[O-])c2)O[C@@H](c2cccc([N+](=O)[O-])c2)O1 and print it.
**A:** 0.567

**Q:** Retrieve composite z-score measured for COCCOC(=O)N1C(=O)[C@@]2(c3cc(C#CCC(C(=O)OC)C(=O)OC)ccc31)[C@H](C(N)=O)[C@H]1C(=O)O[C@H](c3ccccc3)[C@H](c3ccccc3)N1[C@@H]2c1ccccc1OCCO and print it.
**A:** 1.37

**Q:** Retrieve composite z-score measured for COc1ccc([Si](C)(C)[C@H]2[C@H](CC(=O)N3CCC[C@H]3CO)O[C@@]3(C(=O)N(Cc4cccc(N5CCCCC5=O)c4)c4ccccc43)[C@@H]2C)cc1 and print it.
**A:** 1.3

**Q:** Retrieve composite z-score measured for O=C1C2C=CC(C(O)C3CC=CCC3)N(Nc3ccc([N+](=O)[O-])cc3)C2C(=O)N1c1ccccc1 (configuration not stated) and print it.
**A:** 1

**Q:** Retrieve composite z-score measured for O=C1C2C=CC(C(O)c3ccccn3)N(Nc3ccc([N+](=O)[O-])cc3)C2C(=O)N1c1ccccc1 (configuration not stated) and print it.
**A:** 0.37

* * *

# protocol-notes: binders of probe aFSTL3 on microarray, primary screen, stem cell growth factor project, biochemical, small-molecule microarray, fluorescence 635/667 (AID 1064);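 further: measures binding of the biotinylated anti-FSTL3 antibody to printed compounds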
# assay-conditions: higher = more signal
Kindly supply the reported composite z-score values for the records listed here.

**Q:** Retrieve composite z-score measured for O=C1OCC=C[C@H]2OC34C=CCN(Cn5nnc6ccccc65)C(=O)[C@H]3N(CCO)C(=O)[C@@H]4[C@@H]12 (some centres undefined) and print it.
**A:** 0.645

**Q:** Retrieve composite z-score measured for COC(=O)[C@@]1(Cc2ccc(F)cc2)[C@H]2c3cc(C(=O)N4CCCC4)n(Cc4ccc(OC(F)(F)F)cc4)c3C[C@H]2CN1C(=O)c1ccccc1 and print it.
**A:** 0.262

**Q:** Retrieve composite z-score measured for C=CCNC(=O)[C@H]1[C@@H]2C(=O)O[C@@H](c3ccccc3)[C@@H](c3ccccc3)N2[C@@H](c2ccc(O)cc2)[C@]12C(=O)Nc1ccccc12 and print it.
**A:** 0.318

**Q:** Retrieve composite z-score measured for CCCCN1CC=CC23O[C@@H]4/C=C\CCCOC(=O)C4[C@H]2C(=O)N(CCCCCCO)[C@@H]3C1=O (some centres undefined) and print it.
**A:** 0.179

* * *

# System: Human papillomavirus type 1a protein E7 (residues 44-93)
# protocol-notes: HPV1a E7 fragment binders on microarrays, primary screen, biochemical, small-molecule microarray, residues 44-93, 635 nm fluorescence (AID 1108);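 further: E7 fragment applied at 1 µg/mL in TBST for 1 h at 4 C; score combines spot fluorescence with its signal to noise ratio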
# assay-conditions: small-molecule microarray binding, fluorescence 635 nm; higher = more signal
outcome-measure: composite z-score

**Q:** Retrieve composite z-score measured for COC(=O)C(CC#Cc1ccc2c(c1)[C@]1(C(=O)N2)[C@H](c2ccc(OCCO)cc2)N2[C@H](c3ccccc3)[C@H](c3ccccc3)OC(=O)[C@H]2[C@@H]1C(N)=O)C(=O)OC and print it.
**A:** 1.41

**Q:** Retrieve composite z-score measured for CCOC(=O)C1=CC[C@@H](c2ccccc2)N(S(=O)(=O)c2ccc(C)cc2)[C@@H]1C#N and print it.
**A:** 1.32

**Q:** Retrieve composite z-score measured for COc1cc2c(cc1OC)CN(C(=O)[C@@H]1[C@H]3C(=O)O[C@H](c4ccccc4)[C@H](c4ccccc4)N3[C@H](c3ccc(O)cc3)[C@@]13C(=O)Nc1ccc(C#CC4=CCCCC4)cc13)CC2 and print it.
**A:** 0.244

**Q:** Retrieve composite z-score measured for O=C1C[C@@](C(=O)NCC(F)(F)F)(c2ccc([N+](=O)[O-])cc2)[C@@H](c2ccc(CO)cc2I)N1CC12CC3CC(CC(C3)C1)C2 and print it.
**A:** 1.31

**Q:** Retrieve composite z-score measured for C=CC[C@]1(C(=O)NCCN2CCOCC2)N=C(c2ccc(OCCCO)cc2)O[C@H]1c1ccccc1 and print it.
**A:** 1.35

**Q:** Retrieve composite z-score measured for CN1C(=O)C2CC=C(C3=CCO[C@@H]3[C@H]3CCCN3S(=O)(=O)c3ccccc3[N+](=O)[O-])CC2C1=O (some centres undefined) and print it.
**A:** -0.351

**Q:** Retrieve composite z-score measured for COC(=O)[C@@]1(Cc2ccc(F)cc2)[C@H]2c3cc(C(=O)N4CCCC4)n(CCc4c[nH]c5cc(F)ccc45)c3C[C@H]2CN1C(=O)c1ccccc1 and print it.
**A:** 1.41

**Q:** Retrieve composite z-score measured for C=C(COC)C(=O)CC[C@H](OC(C)=O)c1ccccc1OCCO and print it.
**A:** 0.0337

**Q:** Retrieve composite z-score measured for [N-]=[N+]=NCc1ccccc1C[C@]1(C(=O)N2CCCCC2)COC(c2ccc(OCCCO)cc2)=N1 and print it.
**A:** 0.288

**Q:** Retrieve composite z-score measured for CN1C(=O)C2C=CC(C(O)c3cccs3)N(N(c3ccccc3)c3ccccc3)C2C1=O (centres undefined) and print it.
**A:** 1.28

**Q:** Retrieve composite z-score measured for COC(=O)C(CC#Cc1ccc2c(c1)[C@]1(C(=O)N2)[C@H](C(N)=O)[C@H]2C(=O)O[C@H](c3ccccc3)[C@H](c3ccccc3)N2[C@@H]1c1ccccc1OCCO)C(=O)OC and print it.
**A:** 1.47

**Q:** Retrieve composite z-score measured for Cc1ccc(N2C(=O)c3ccccc3[C@@H](C(=O)NCCN3CCOCC3)[C@@H]2c2ccc(CO)cc2)nc1 and print it.
**A:** 0.113

**Q:** Retrieve composite z-score measured for CN1C(=O)C2C=CC(C(O)c3ccc([N+](=O)[O-])cc3)N(Nc3ccccc3)C2C1=O (centres undefined) and print it.
**A:** 1.41

**Q:** Retrieve composite z-score measured for CCOC(=O)C1=CCC(c2ccncc2)N(S(=O)(=O)c2ccc(C)cc2)C1 (centres undefined) and print it.
**A:** 1.47

**Q:** Retrieve composite z-score measured for CC1CC/C=C\[C@H]2OC34C=CCN(C(C)C)C(=O)[C@H]3N(C(C)CO)C(=O)[C@@H]4C2C(=O)O1 (some centres undefined) and print it.
**A:** -0.607

**Q:** Retrieve composite z-score measured for O=C1C2C=CC(C(O)C(c3ccccc3)c3ccccc3)N(Nc3ccccc3F)C2C(=O)N1c1ccccc1 (centres undefined) and print it.
**A:** 1.45

**Q:** Retrieve composite z-score measured for C=C(CCCC)/C(=C/C[C@@H](OC(C)=O)c1cccc(OCCO)c1)c1cc(C(=O)OC)ccc1OC and print it.
**A:** 0.364

**Q:** Retrieve composite z-score measured for C=C(C(=O)CC[C@@H](OC(=O)c1ccccc1-c1ccccc1C(=O)O)c1ccc(CO)o1)C(C)C and print it.
**A:** 0.476

**Q:** Retrieve composite z-score measured for CCCCN1CC=CC23O[C@@H]4/C=C\CCC(C)OC(=O)C4[C@H]2C(=O)N(CCO)[C@@H]3C1=O (some centres undefined) and print it.
**A:** -0.391

**Q:** Retrieve composite z-score measured for COC(=O)[C@@]1(Cc2ccccc2)[C@H]2c3cc(C(=O)N(C)C)n(CCF)c3C[C@H]2CN1C(=O)c1ccccc1 and print it.
**A:** 0.233

**Q:** Retrieve composite z-score measured for C=C(C)C1CN([C@H](CO)c2ccccc2)C(=O)/C1=C\c1ccccc1 (some centres undefined) and print it.
**A:** -0.165

**Q:** Retrieve composite z-score measured for Cc1ccc(S[C@]2(C(=O)NCCN3CCOCC3)CC(=O)N(C(C)C)[C@@H]2c2ccc(CO)cc2I)cc1 and print it.
**A:** 0.89

**Q:** Retrieve composite z-score measured for [N-]=[N+]=Nc1ccccc1C[C@]1(C(=O)N2CCCCC2)N=C(c2ccc(OCCCO)cc2)O[C@H]1c1ccccc1 and print it.
**A:** -0.0987

**Q:** Retrieve composite z-score measured for CCCNC(=O)[C@@]1(Sc2ccc(C)cc2)CC(=O)N(Cc2cc(C(F)(F)F)cc(C(F)(F)F)c2)[C@@H]1c1ccc(CO)cc1 and print it.
**A:** 0.156

**Q:** Retrieve composite z-score measured for O=C1O[C@H](c2ccccc2)[C@H](c2ccccc2)N2[C@H]1[C@@H](C(=O)N1CCN(c3ncccn3)CC1)[C@]1(C(=O)Nc3ccc(C#CC4(O)CCCCCC4)cc31)[C@H]2c1ccc(O)cc1 and print it.
**A:** 1.07

**Q:** Retrieve composite z-score measured for O=C1NC(=O)C2C1C=CC(C(O)C(c1ccccc1)c1ccccc1)N2Nc1ccccn1 (centres undefined) and print it.
**A:** -1.31

**Q:** Retrieve composite z-score measured for COC(=O)[C@@]1(Cc2ccccc2)[C@H]2c3cc(C(=O)N(C)C)n(Cc4ccc(Cl)c(C(F)(F)F)c4)c3C[C@H]2CN1C(=O)c1ccccc1 and print it.
**A:** 1.37

**Q:** Retrieve composite z-score measured for CC(C)C[C@H]1NC(=O)CNC(=O)[C@@]23C(=O)N[C@@H](Cc4ccccc4)C2[C@H](C)[C@@]2(C)O[C@H]2C3/C=C/C/C=C\CNC1=O (some centres undefined) and print it.
**A:** 0.0774

**Q:** Retrieve composite z-score measured for COc1ccc([Si](C)(C)[C@H]2[C@H](CC(=O)N(CCO)Cc3ccccc3)O[C@@]3(C(=O)N(c4ccccc4)c4ccccc43)[C@@H]2C)cc1 and print it.
**A:** 1.32
